Values compiled from patent US10851098B2.

Biological target: human αVβ6 (Homo sapiens, UniProt P06756+P18564)
Sequence (P06756 31-992 limits assumed): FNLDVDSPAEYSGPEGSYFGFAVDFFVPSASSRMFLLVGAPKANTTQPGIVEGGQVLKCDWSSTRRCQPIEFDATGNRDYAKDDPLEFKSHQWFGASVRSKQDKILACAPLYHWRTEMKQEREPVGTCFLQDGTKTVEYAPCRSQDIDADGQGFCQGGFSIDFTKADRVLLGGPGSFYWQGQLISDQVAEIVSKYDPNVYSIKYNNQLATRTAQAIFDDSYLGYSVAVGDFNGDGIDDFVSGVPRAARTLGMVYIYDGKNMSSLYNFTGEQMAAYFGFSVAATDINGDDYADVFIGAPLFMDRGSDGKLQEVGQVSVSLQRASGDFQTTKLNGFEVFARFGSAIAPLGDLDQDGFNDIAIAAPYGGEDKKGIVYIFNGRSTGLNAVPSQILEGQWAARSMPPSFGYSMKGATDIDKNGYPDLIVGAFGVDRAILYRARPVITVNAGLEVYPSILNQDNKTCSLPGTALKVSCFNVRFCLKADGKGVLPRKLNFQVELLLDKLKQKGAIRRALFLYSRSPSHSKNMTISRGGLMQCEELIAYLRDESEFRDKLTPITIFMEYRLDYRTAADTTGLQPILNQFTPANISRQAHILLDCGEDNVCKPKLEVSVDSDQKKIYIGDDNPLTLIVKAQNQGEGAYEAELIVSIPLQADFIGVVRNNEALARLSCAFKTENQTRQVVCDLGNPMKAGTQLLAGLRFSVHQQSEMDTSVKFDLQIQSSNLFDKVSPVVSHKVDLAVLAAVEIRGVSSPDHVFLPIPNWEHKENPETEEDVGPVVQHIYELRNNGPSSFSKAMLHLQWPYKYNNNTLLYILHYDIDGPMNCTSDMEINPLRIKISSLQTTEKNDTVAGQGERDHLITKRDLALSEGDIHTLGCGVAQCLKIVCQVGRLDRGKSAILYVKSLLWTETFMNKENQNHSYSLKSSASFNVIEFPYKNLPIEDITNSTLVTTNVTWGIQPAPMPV
Sequence (P18564 22-707 limits assumed): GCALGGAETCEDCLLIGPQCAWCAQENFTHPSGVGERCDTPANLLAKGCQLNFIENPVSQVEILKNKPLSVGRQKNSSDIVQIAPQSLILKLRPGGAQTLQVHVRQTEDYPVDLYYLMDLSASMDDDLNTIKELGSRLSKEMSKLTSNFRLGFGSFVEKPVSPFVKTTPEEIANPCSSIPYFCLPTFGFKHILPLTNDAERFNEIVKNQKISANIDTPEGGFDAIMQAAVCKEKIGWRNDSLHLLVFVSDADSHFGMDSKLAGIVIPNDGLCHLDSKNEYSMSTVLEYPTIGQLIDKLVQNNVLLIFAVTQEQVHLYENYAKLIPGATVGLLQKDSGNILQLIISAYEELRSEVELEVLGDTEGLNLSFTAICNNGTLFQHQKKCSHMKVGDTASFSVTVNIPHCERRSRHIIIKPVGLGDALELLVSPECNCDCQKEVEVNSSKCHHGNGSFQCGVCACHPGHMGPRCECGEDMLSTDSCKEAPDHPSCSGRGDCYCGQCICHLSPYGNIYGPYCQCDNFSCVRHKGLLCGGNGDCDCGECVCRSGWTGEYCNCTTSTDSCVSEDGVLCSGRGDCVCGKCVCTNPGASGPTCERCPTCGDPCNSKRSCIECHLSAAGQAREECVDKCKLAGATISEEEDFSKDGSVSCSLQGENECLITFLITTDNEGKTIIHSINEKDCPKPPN
Experiment: human αVβ6 HTRF binding assay
pIC50: −log10 of the molar value.
Measure: pIC50

Worked cases, pIC50 given:
# Compound, Numeric Result
records = [
    ("O=C(O)CC(NC(=O)c1cnn(CCc2ccc3c(n2)NCCC3)c1)c1cc(Cl)cc(Cl)c1 (stereo not shown)", 8.14),
    ("O=C(NC[C@H](NS(=O)(=O)Cc1ccccc1C(F)(F)F)C(=O)O)c1cnn(CCc2ccc3c(n2)NCCC3)c1", 8.60),
    ("C#CCOC(=O)N[C@@H](CNC(=O)c1cnn(CCc2ccc3c(n2)NCCC3)c1)C(=O)O", 8.70),
    ("COc1ccc([C@H](CC(=O)O)NC(=O)c2cnn(CCc3ccc4c(n3)NCCC4)c2COC(C)(C)C)cc1F", 7.59),
    ("O=C(NC[C@H](NS(=O)(=O)CC1CC1)C(=O)O)c1cnn(CCc2ccc3c(n2)NCCC3)c1", 8.57),
    ("CCOCCS(=O)(=O)N[C@@H](CNC(=O)c1cnn(CCc2ccc3c(n2)NCCC3)c1)C(=O)O", 8.05),
    ("O=C(N[C@@H](CNC(=O)c1cnn(CCc2ccc3c(n2)NCCC3)c1)C(=O)O)OCC(F)(F)F", 8.80),
    ("O=C(NC[C@H](NS(=O)(=O)Cc1ccccc1Cl)C(=O)O)c1cnn(CCc2ccc3c(n2)NCCC3)c1", 8.26),
    ("O=C(NC[C@H](NS(=O)(=O)Cc1ccc(Cl)c(Cl)c1)C(=O)O)c1cnn(CCc2ccc3c(n2)NCCC3)c1", 8.44),
    ("O=C(O)CC(NC(=O)c1cnn(CCc2ccc3c(n2)NCCC3)c1CO)c1ccc(F)cc1 (stereo not shown)", 6.92),
]

1. Cc1cc(C)c(S(=O)(=O)N[C@H](CNC(=O)c2cnn(CCCc3ccc4c(n3)NCCC4)c2)C(=O)O)c(C)c1
2. CC(C)(C)OCc1c(C(=O)NC(CC(=O)O)c2cc(Cl)cc(Cl)c2)cnn1CCCc1ccc2c(n1)NCCC2 (stereo not shown)
3. N#Cc1cccc(CS(=O)(=O)N[C@@H](CNC(=O)c2cnn(CCc3ccc4c(n3)NCCC4)c2)C(=O)O)c1
4. Cc1cc(C)c(S(=O)(=O)N[C@@H](CNC(=O)c2ccn(CCc3ccc4c(n3)NCCC4)c2)C(=O)O)c(C)c1
*Q* // ascending sort on recorded pIC50 // ordering of labels required in reply
*A* 2, 3, 1, 4
(2: 7.40, 3: 7.89, 1: 8.21, 4: 9.30)

1. CCCS(=O)(=O)N[C@@H](CNC(=O)c1cnn(CCc2ccc3c(n2)NCCC3)c1)C(=O)O
2. O=C(O)CC(NC(=O)c1cnn(CCc2ccc3c(n2)NCCC3)c1CO)c1ccccc1Cl (stereo not shown)
3. O=C(NC[C@H](NS(=O)(=O)Cc1cccc(F)c1)C(=O)O)c1cnn(CCc2ccc3c(n2)NCCC3)c1
4. CC(C)(C)OCc1c(C(=O)NC(CC(=O)O)c2cccc(Oc3cc(Cl)cc(Cl)c3)c2)cnn1CCc1ccc2c(n1)NCCC2 (stereo not shown)
*Q* I would appreciate it if you could sort these 4 compounds by pIC50, starting from the smallest number. Provide the ranking by listing each label in its place in the requested order.
*A* 2, 4, 3, 1
(2: 5.59, 4: 7.55, 3: 8.09, 1: 8.39)

I. COc1ccc(C(CC(=O)O)NC(=O)c2cnn(CCc3ccc4c(n3)NCCC4)c2CO)cc1 (stereo not shown)
II. CCCCOC(=O)N[C@@H](CNC(=O)c1cnn(CCc2ccc3c(n2)NCCC3)c1)C(=O)O
*Q* For this pair, I and II , which shows a numerically higher pIC50? Answer by stating the label of the chosen item.
*A* II

I. CCN(C(=O)c1cnn(CCc2ccc3c(n2)NCCC3)c1)C(CC(=O)O)c1ccc(OC)nc1 (stereo not shown)
II. O=C(O)CC(NC(=O)c1cnn(CCc2ccc3c(n2)NCCC3)c1CO)c1cccc(Oc2cc(Cl)cc(Cl)c2)c1 (stereo not shown)
*Q* // which entry has the larger pIC50 value, I or II ? In your reply, give the label of the chosen option.
*A* II
(II: 7.89, I: 6.44)
